- assayed-target: Cannabinoid receptor 1 (Homo sapiens, UniProt P21554)
- Sequence (P21554 whole entry): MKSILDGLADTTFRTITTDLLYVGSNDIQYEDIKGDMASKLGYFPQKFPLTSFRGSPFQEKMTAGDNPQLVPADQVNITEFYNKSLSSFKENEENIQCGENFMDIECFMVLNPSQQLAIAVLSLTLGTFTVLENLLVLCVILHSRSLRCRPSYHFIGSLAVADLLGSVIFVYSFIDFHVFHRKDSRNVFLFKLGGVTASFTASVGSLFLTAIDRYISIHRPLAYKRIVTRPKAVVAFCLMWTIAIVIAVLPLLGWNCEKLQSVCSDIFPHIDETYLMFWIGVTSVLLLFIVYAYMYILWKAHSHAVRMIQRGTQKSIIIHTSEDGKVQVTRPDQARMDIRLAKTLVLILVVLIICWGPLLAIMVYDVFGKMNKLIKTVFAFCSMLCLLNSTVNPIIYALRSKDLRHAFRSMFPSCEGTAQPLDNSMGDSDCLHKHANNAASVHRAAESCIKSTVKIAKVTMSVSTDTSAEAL
- test-method-notes: Binding affinity to human recombinant CB1 receptor expressed in COS cells
- Format: cell-based
- run-conditions: read-out: Ki
measurement-kind: Ki (µM)

{"molecule": "CCCCCCCC/C=C\\CCCCCCCC(=O)N(O)CCO", "unit-abbreviation": "µM", "qualifier-sign": ">", "value-measured": 10}
{"molecule": "CCCCC/C=C\\C/C=C\\C/C=C\\C/C=C\\CCCC(=O)NOCCO", "unit-abbreviation": "µM", "qualifier-sign": "=", "value-measured": 0.47}
{"molecule": "CCCCCCCC/C=C\\CCCCCCCC(=O)NCCO [OLEOYLETHANOLAMIDE]", "unit-abbreviation": "µM", "qualifier-sign": "=", "value-measured": 1.1}
{"molecule": "CCCCCCCC/C=C\\CCCCCCCC(=O)ONCCO", "unit-abbreviation": "µM", "qualifier-sign": ">", "value-measured": 10}
{"molecule": "CCCCCCCC/C=C\\CCCCCCCC(=O)NOCCO", "unit-abbreviation": "µM", "qualifier-sign": ">", "value-measured": 10}
{"molecule": "CCCCCCCCCCCCCCCC(=O)ONCCO", "unit-abbreviation": "µM", "qualifier-sign": ">", "value-measured": 10}
{"molecule": "CCCCCCCCCCCCCCCC(=O)N(O)CCO", "unit-abbreviation": "µM", "qualifier-sign": ">", "value-measured": 10}
{"molecule": "CCCCC/C=C\\C/C=C\\C/C=C\\C/C=C\\CCCC(=O)N(O)CCO", "unit-abbreviation": "µM", "qualifier-sign": "=", "value-measured": 3.9}
{"molecule": "CCCCCCCCCCCCCCCC(=O)NOCCO", "unit-abbreviation": "µM", "qualifier-sign": ">", "value-measured": 10}
{"molecule": "CCCCC/C=C\\C/C=C\\C/C=C\\C/C=C\\CCCC(=O)ONCCO", "unit-abbreviation": "µM", "qualifier-sign": "=", "value-measured": 3.5}

---

Recorded pKi values for a group of compounds are listed next.
- assayed-target: Cannabinoid receptor 2 (Homo sapiens, UniProt P34972)
- Sequence (P34972 whole entry): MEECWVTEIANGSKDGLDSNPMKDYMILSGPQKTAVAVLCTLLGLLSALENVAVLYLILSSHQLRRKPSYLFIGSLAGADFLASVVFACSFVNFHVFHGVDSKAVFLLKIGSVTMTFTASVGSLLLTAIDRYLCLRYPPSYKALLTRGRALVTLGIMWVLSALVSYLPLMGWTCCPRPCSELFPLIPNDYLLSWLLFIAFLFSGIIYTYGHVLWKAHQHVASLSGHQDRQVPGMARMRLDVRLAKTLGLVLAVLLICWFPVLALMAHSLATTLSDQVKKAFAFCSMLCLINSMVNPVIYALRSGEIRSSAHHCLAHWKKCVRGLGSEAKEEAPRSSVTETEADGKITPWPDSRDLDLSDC
- test-method-notes: Binding affinity to human recombinant CB2 receptor expressed in COS cells
- Type: cell-based
- run-conditions: read-out: Ki
pKi: −log10 of the molar value.

{"compound": "CCCCCCCC/C=C\\CCCCCCCC(=O)NCCO [OLEOYLETHANOLAMIDE]", "qualifier-sign": "<", "pKi": 5.00}
{"compound": "CCCCC/C=C\\C/C=C\\C/C=C\\C/C=C\\CCCC(=O)ONCCO", "qualifier-sign": "=", "pKi": 5.62}
{"compound": "CCCCCCCC/C=C\\CCCCCCCC(=O)NOCCO", "qualifier-sign": "=", "pKi": 5.42}
{"compound": "CCCCC/C=C\\C/C=C\\C/C=C\\C/C=C\\CCCC(=O)NOCCO", "qualifier-sign": "=", "pKi": 7.09}
{"compound": "CCCCCCCCCCCCCCCC(=O)ONCCO", "qualifier-sign": "<", "pKi": 5.00}
{"compound": "CCCCC/C=C\\C/C=C\\C/C=C\\C/C=C\\CCCC(=O)N(O)CCO", "qualifier-sign": "=", "pKi": 5.72}
{"compound": "CCCCCCCC/C=C\\CCCCCCCC(=O)N(O)CCO", "qualifier-sign": "=", "pKi": 5.27}
{"compound": "CCCCCCCCCCCCCCCC(=O)NOCCO", "qualifier-sign": "<", "pKi": 5.00}
{"compound": "CCCCCCCCCCCCCCCC(=O)N(O)CCO", "qualifier-sign": "<", "pKi": 5.00}
{"compound": "CCCCCCCC/C=C\\CCCCCCCC(=O)ONCCO", "qualifier-sign": "=", "pKi": 5.07}
